The reported measurements were obtained from patent US9682925B2.

This listing pairs molecules with measured pIC50.
Target: human LSD1(171-852) (Homo sapiens)
Construct: to give hLSD1(171-852) purified product; made in house; host or cells: Escherichia coli C43(DE3) pLysS
Experiment: Measurement of LSD1 inhibitory activity (time-resolved fluorescence, biotin-histone H3 mono methylated K4 peptide)
Type: biochemical
Details: read-out: LSD1 IC50 value
pIC50: −log10 of the molar value. Structures can show the parent of a compound that is named as a salt.

Consider the worked cases shown below.
                                   molecule  result
0  CC(C)(C)n1cc(C(=O)Nc2ccc([C@@H]3C[C@H]3NCC3CC3)cc2)cn1 (relative stereo) [Example 164, hydrochloride]    6.70
1  CN1CCC(CN[C@@H]2C[C@H]2c2ccc(NC(=O)c3cccc(C(F)(F)F)c3)cc2)CC1 (relative stereo) [Example 155, dihydrochloride]  > 7.00
2  O=C(Nc1ccc([C@@H]2C[C@H]2NCc2ccccc2)cc1)c1cccc(-c2ccccc2)c1 (relative stereo) [Example 36]  > 7.00
3  O=C(Nc1ccc([C@@H]2C[C@H]2NCC2CC2)cc1)c1cc(C(F)(F)F)ccc1F (relative stereo) [Example 73, hydrochloride]  > 7.00

Query: Identify the measured pIC50 of Cc1ccc(-c2ccc(C(=O)Nc3ccc([C@@H]4C[C@H]4NCC4CC4)cc3)cc2)cc1 (relative stereo) [Example 118] for human LSD1(171-852) (Homo sapiens).
Response: 7.00

Query: # returns recorded pIC50 (system: human LSD1(171-852) (Homo sapiens)) for O=C(Nc1ccc([C@@H]2C[C@H]2NCC2CC2)cc1)c1ccc2c(c1)CCCC2 (relative stereo) [Example 85]
Response: > 7.00

* * *

Biological target: human LSD1(171-852) (Homo sapiens, UniProt O60341)
Construct: to give hLSD1(171-852) purified product; made in house; host or cells: Escherichia coli C43(DE3) pLysS
Experiment: Measurement of LSD1 inhibitory activity (time-resolved fluorescence, biotin-histone H3 mono methylated K4 peptide)
Type: biochemical
Settings: read-out: LSD1 IC50 value
pIC50: −log10 of the molar value. Counter-ions that a name gives are not always drawn.
Documented pIC50 across a set of compounds

# example entries with known answers
>>> print(df.to_string())
                                   compound  result
0  O=C(Nc1ccc([C@@H]2C[C@H]2NC2CCc3ccccc32)cc1)c1ccccc1 (relative stereo)  > 7.00
1  CC1=NN(c2ccc(C(=O)Nc3ccc([C@@H]4C[C@H]4NCC4CC4)cc3)cc2)C(=O)C1 (relative stereo)    6.00
2  O=C(Nc1ccc([C@@H]2C[C@H]2NCc2ccccc2)cc1)c1cccc(C(F)(F)F)c1 (relative stereo)  > 7.00

Let us move to another entry and its pIC50.
Query: Data request, read-out pIC50, for O=C(Nc1ccc([C@@H]2C[C@H]2NCC2CC2)cc1)c1cn[nH]c1 (relative stereo) [Example 79, hydrochloride]
Response: > 7.00

* * *

Target: human LSD1(171-852) (Homo sapiens, UniProt O60341)
Construct: to give hLSD1(171-852) purified product; made in house; host or cells: Escherichia coli C43(DE3) pLysS
Assay: Measurement of LSD1 inhibitory activity (time-resolved fluorescence, biotin-histone H3 mono methylated K4 peptide)
Assay type: biochemical
Conditions: read-out: LSD1 IC50 value
Structures can show the parent of a compound that is named as a salt.
observable: IC50 (nM)
Note: unit nM is implicit; provide only the numeric part.

>>> print(df.to_string())
                                   compound  recordednumber
0  O=C(Nc1ccc([C@@H]2C[C@H]2N2CCCC2)cc1)c1ccccc1 (relative stereo) [Example 30, hydrochloride]             580

Kindly review the next compound as well.
Query: Look up IC50: CCCCCCCCN[C@@H]1C[C@H]1c1ccc(NC(=O)c2cccc(Br)c2)cc1 (relative stereo) [Example 4]
Response: 240
